System: OVCAR-5
run-description: NCI tumour cell line growth inhibition, 48 h
The source made the active and inactive calls. Rule as the data show it: active = GI50 up to about 1.1 µM and inactive = higher.
Thanks in advance; please answer with one of these: active, inactive

compound	label-value
O=c1c2cc([N+](=O)[O-])cnc2sn1-c1ccc([N+](=O)[O-])cc1	inactive
O=c1[nH]c(=O)n(C2CC(O)C(CO)O2)cc1/N=N/NCCc1ccccc1 (stereo not drawn)	inactive
CC(=O)N[C@H]1CCCC[C@@H]1OC(C)=O	inactive
COc1ccc(C(=O)C(C(=O)CCC(=O)Nc2cccc(Cl)c2)c2ccc(OC)cc2)cc1 (stereo not drawn)	inactive

Query: In this assay, the call recorded for CC1(C)CC(=O)C(CC2C(=O)c3ccccc3C2=O)C(=O)C1C(=O)C(=O)Nc1cccc2ccc(O)cc12 (stereo not drawn) was what?
Result: inactive

Query: Repeat for the following compound: O[C@H]1[C@@H]2OC[C@@H](O)[C@H](OCc3ccccc3)[C@@](COCc3ccccc3)(O2)[C@@H]1OCc1ccccc1
Result: inactive

Query: Continue with O=C(Oc1cccnc1)c1cc2cc(CCl)ccc2oc1=O
Result: inactive

The reported measurements were obtained from ChEMBL document CHEMBL1201862.
